# System: Staphylococcus aureus (Sa)
# protocol_details: MIC in nutrient agar, Staphylococcus aureus
# Assay type: cell-based, Staphylococcus aureus ATCC 6538
# measurement_conditions: Staphylococcus aureus, pH 6.8, read-out: Minimum Inhibitory Concentration, Sa
experimental_endpoint: MIC (µg/mL)
API: value field is a number in µg/mL; no unit string.

1) CS/C=C(\Cl)C#N | 50

Short answer for CSC=C(Cl)C#N : MIC was 50

###

# Test system: Pseudomonas aeruginosa (PRD-10)
# protocol_details: MIC in nutrient agar, Pseudomonas aeruginosa PRD-10
# Format: cell-based, Pseudomonas aeruginosa ATCC 15442
# measurement_conditions: Pseudomonas aeruginosa, pH 6.8; read-out: Minimum Inhibitory Concentration, PRD
# MIC per entry

1. CCSC#CC#N [B, 3-ethylthio-2-propynenitrile] | 25 µg/mL
2. CCCCCCCCCCCCSC#CC#N [F, 3-dodecylthio-2-propynenitrile] | > 500 µg/mL
3. N#CC#CSC1CCCC1 [C, 3-cyclopentylthio-2-propynenitrile] | 250 µg/mL
4. N#CC#CSc1ccc(Cl)cc1 [D, 3-(4-chlorophenylthio)-2-propynenitrile] | 25 µg/mL

The compound listed as CSC#CC#N [Compound A, 3-methylthio-2-propynenitrile] has a reported MIC of 2.5 µg/mL
